Each recorded value in this set is attributed to ChEMBL document CHEMBL5214990.

- Test system: Candida albicans
- assay-comment: Induction of apoptosis in Candida albicans assessed as late apoptotic cells measured after 24 hrs by Annexin V-FITC/PI staining based flow cytometry (reference value: 0.44%)
- Assay type: functional
# key: entry, value: Activity
recorded-metric: Activity (%)

> print(dat)
                                   compound  readout.value
1        OC(Cn1cncn1)(Cn1cncn1)c1ccc(F)cc1F           5.96
2  C[C@H](C(=O)OC(Cn1ccnc1)c1ccc(F)cc1)c1ccc(-c2ccccc2)c(F)c1 (some centres undefined)           1.06
3  C[C@H](C(=O)N(C)CC(O)(Cn1ccnc1)c1ccc(Cl)cc1Cl)c1cccc(C(=O)c2ccccc2)c1 (some centres undefined)           28.1
4  C[C@H](C(=O)N(C)CC(O)(Cn1ccnc1)c1ccc(Cl)cc1)c1ccc(-c2ccccc2)c(F)c1 (some centres undefined)           19.4

* * *

- Test system: Candida albicans
- assay-comment: Induction of apoptosis in Candida albicans assessed as early apoptotic cells measured after 24 hrs by Annexin V-FITC/PI staining based flow cytometry (reference value: 0.46%)
- Type: functional
recorded-metric: Activity (%)

> print(dat)
                                   molecule  recorded.metric  unit.annotation  readout.value
1  C[C@H](C(=O)N(C)CC(O)(Cn1ccnc1)c1ccc(Cl)cc1)c1ccc(-c2ccccc2)c(F)c1 (some centres undefined)         Activity                %            1.8
2  C[C@H](C(=O)OC(Cn1ccnc1)c1ccc(F)cc1)c1ccc(-c2ccccc2)c(F)c1 (some centres undefined)         Activity                %          0.086
3        OC(Cn1cncn1)(Cn1cncn1)c1ccc(F)cc1F         Activity                %           12.3
4  C[C@H](C(=O)N(C)CC(O)(Cn1ccnc1)c1ccc(Cl)cc1Cl)c1cccc(C(=O)c2ccccc2)c1 (some centres undefined)         Activity                %           2.13

* * *

- tgt: Lanosterol 14-alpha demethylase (Candida albicans (strain SC5314 / ATCC MYA-2876) (Yeast))
- Sequence (P10613 whole entry): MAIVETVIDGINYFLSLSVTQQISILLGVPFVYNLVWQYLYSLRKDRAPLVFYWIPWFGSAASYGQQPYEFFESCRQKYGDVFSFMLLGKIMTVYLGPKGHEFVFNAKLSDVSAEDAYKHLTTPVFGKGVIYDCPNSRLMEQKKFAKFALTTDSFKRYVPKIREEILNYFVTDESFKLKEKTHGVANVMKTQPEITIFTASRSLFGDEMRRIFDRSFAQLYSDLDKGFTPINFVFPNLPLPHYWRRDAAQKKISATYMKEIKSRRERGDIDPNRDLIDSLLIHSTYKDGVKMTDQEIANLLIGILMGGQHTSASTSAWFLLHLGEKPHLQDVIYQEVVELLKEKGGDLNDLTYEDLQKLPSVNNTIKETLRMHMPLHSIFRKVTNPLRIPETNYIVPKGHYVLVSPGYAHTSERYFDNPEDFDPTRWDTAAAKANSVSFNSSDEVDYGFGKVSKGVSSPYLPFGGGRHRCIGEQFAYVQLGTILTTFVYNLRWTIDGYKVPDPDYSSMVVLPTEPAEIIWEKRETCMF
- assay-comment: Inhibition of CYP51 in Candida albicans ATCC SC5314 assessed as reduction in substrate consumption using lanosterol as substrate preincubated for 30 mins followed by substrate addition and measured after 60 mins by HPLC analysis
pIC50: −log10 of the molar value.
# key: entry, value: pIC50
recorded-metric: pIC50

> print(dat)
                                   molecule  recorded.metric  readout.value
1        OC(Cn1cncn1)(Cn1cncn1)c1ccc(F)cc1F            pIC50           6.96
2  C[C@H](C(=O)OC(Cn1ccnc1)c1ccc(F)cc1)c1ccc(-c2ccccc2)c(F)c1 (some centres undefined)            pIC50           6.46
3  C[C@H](C(=O)N(C)CC(O)(Cn1ccnc1)c1ccc(Cl)cc1)c1ccc(-c2ccccc2)c(F)c1 (some centres undefined)            pIC50           6.72
4  C[C@H](C(=O)N(C)CC(O)(Cn1ccnc1)c1ccc(Cl)cc1Cl)c1cccc(C(=O)c2ccccc2)c1 (some centres undefined)            pIC50           6.80
